Provenance of the data: patent US12077503B2

Tested on: barnyardgrass (Echinochloa crus-galli)
Assay: Test G Post-Emergence Protocol
Format: in vivo
Settings: Echinochloa crus-galli, post-emergence, 312 h, 62.5 g ai/ha, evaluated after 13 days, 100=total damage to plant, 0=no damage to plant, read-out: Barnyardgrass damage rating
From the text: Seeds of corn (Zea mays), giant foxtail (Setaria faberi), barnyardgrass (Echinochloa crus-galli), ivy-leaved morning glory (Ipomoea hederacea), redroot pigweed (Amaranthus retroflexus) and velvetleaf (Abutilon theophrasti) were sown in standard soil in pots. […]
Let's look at some compounds and their measured pest or weed control at 62.5 g/ha.
The reply should be a number in %, with the unit left off.

# example entries with known answers
Cc1cc([C@H]2CN(C)C(=O)[C@@H]2C(=O)Nc2ccc(F)c(F)c2F)cnn1 (racemic)
0
Cc1c(F)cccc1NC(=O)[C@@H]1C(=O)N(C)C[C@H]1c1cc(Cl)c(F)c(Cl)c1 (racemic)
70
CN1C[C@H](c2cccc(C(F)(F)F)c2)[C@@H](C(=O)Nc2ccc(O)cc2F)C1=O (racemic)
0

Short answer for CN1C[C@H](c2ccc(C(F)(F)F)cc2)[C@@H](C(=O)Nc2cccnc2[N+](=O)[O-])C1=O (racemic) : pest or weed control at 62.5 g/ha was 0

According to the records, this compound Cc1c(F)cccc1NC(=O)[C@@H]1C(=O)N(C)C[C@H]1c1cccc(OCC2CC2)c1 (racemic) displays pest or weed control at 62.5 g/ha of 30

Kindly note the recorded pest or weed control at 62.5 g/ha for CN1C[C@H](c2ccc(C(F)(F)F)cc2)[C@@H](C(=O)Nc2cccnc2[S+](C)[O-])C1=O (mixture of isomers) , which is 0

// pest or weed control at 62.5 g/ha lookup, compound = CON1C[C@@H](c2cccc(C(F)(F)F)c2)[C@H](C(=O)Nc2cccc(F)c2F)C1=O (racemic) , result: 60

* * *

test system: ragweed (common ragweed, Ambrosia elatior); test: Test A preemergence; type: in vivo; conditions: Ambrosia artemisiifolia, pre-emergence, 240 h, 125 g ai/ha, preemergence; visual injury rating, 0 to 100 scale where 0 is no effect and 100 is complete control; approximately 10 d; read-out: Ragweed plant response rating
Attribute: pest or weed control at 125 g/ha
Express the result in % but write the number alone.

As a guide, the following entries are already answered.
CSc1ccccc1NC(=O)[C@H]1C(=O)NC[C@@H]1c1ccc(F)c(C#N)c1 [Compound 1201]
60
CN1CC[C@H](c2ccc(C(F)(F)F)cc2)[C@@H](C(=O)Nc2cccc(F)c2F)C1=O [Compound 1225]
50
COc1cc([C@H]2CN(C)C(=O)[C@@H]2C(=O)Nc2ccccc2F)cc(OC)c1OC [Compound 1217]
0
CN1C[C@H](c2cccc(C#N)c2)[C@@H](C(=O)Nc2cccc(F)c2F)C1=O [Compound 1286]
50
CN1C[C@H](c2csc3c2CCCC3)[C@@H](C(=O)Nc2ccccc2F)C1=O [Compound 1275]
20

pest or weed control at 125 g/ha recorded for this compound, CN1C[C@H](c2ccc(C(F)(F)F)cc2)[C@@H](C(=O)Nc2cccc(Cl)c2F)C1=O [Compound 1238] , is 0

Lab note: measured pest or weed control at 125 g/ha of Cc1ccc([C@H]2CN(C)C(=O)[C@@H]2C(=O)Nc2c(F)c(F)c(F)c(F)c2F)cc1 [Compound 1292] was 0

pest or weed control at 125 g/ha in this record for CN1C[C@H](c2ccc(Cl)c(F)c2)[C@@H](C(=O)Nc2cccc(F)c2F)C1=O [Compound 1265] : 0

* * *

tested on: pigweed (Amaranthus retroflexus); experiment: Test A preemergence; format: in vivo; conditions: 125 g ai/ha, Preemergence; visual injury after approximately 10 d; 0 to 100 scale where 0 is no effect and 100 is complete control
reported.metric: Plant response rating, Pigweed
Form field (numeric): enter value without unit.

The reported value for O=C1NCC(c2cc(C(F)(F)F)ccc2F)C1C(=O)Nc1ccc(F)cc1F (stereo not drawn) [Compound 595] in terms of Plant response rating, Pigweed is 30

The compound listed as O=C(Nc1ccccc1F)C1C(=O)N(C2C=CCCC2)CC1c1cccc(C(F)(F)F)c1 (stereo not drawn) [Compound 524] shows Plant response rating, Pigweed equal to 0

Lab book: Plant response rating, Pigweed of COCc1cccc(C2CNC(=O)C2C(=O)Nc2ccccc2Cl)c1 (stereo not drawn) [Compound 498] noted as 0

The value of Plant response rating, Pigweed measured for the compound O=C1NCC(c2cc(F)cc(Cl)c2)C1C(=O)Nc1cccc(F)c1F (stereo not drawn) [Compound 492] turned out to be 0

For record CN1CC(c2ccc(C(F)(F)F)cc2F)C(C(=O)Nc2ccccc2S(C)(=O)=O)C1=O (stereo not drawn) [Compound 473] the listed Plant response rating, Pigweed is 80

The compound listed as O=C1NCC(c2ccc(Oc3ccccc3)cc2)C1C(=O)Nc1ccccc1Cl (racemic) [Compound 538] has a reported Plant response rating, Pigweed of 0

Input CC(C)Oc1cccc(C2CN(C)C(=O)C2C(=O)Nc2ccccc2C(F)(F)F)c1 (stereo not drawn) [Compound 652] . Output Plant response rating, Pigweed: 0

* * *

system: ryegrass, Italian (Italian ryegrass, Lolium multiflorum); test: Test A preemergence; assay type: in vivo; settings: Lolium multiflorum, pre-emergence, 240 h, 125 g ai/ha, preemergence; 0 to 100 scale where 0 is no effect and 100 is complete control; read-out: Ryegrass, Italian plant response rating
reported.metric: pest or weed control at 125 g/ha (%)
Report as a plain number; the unit % is understood.

CCOc1ccc([C@H]2CN(C)C(=O)[C@@H]2C(=O)Nc2ccc(F)cc2F)cc1
0
COc1c(F)ccc([C@H]2CNC(=O)[C@@H]2C(=O)Nc2ccccc2C(F)(F)F)c1Cl
0
CN1CC[C@H](c2cccc(C(F)(F)F)c2)[C@@H](C(=O)Nc2ccccc2S(C)(=O)=O)C1=O
0

// below: pest or weed control at 125 g/ha requested for another compound
Looking up CC(C)c1cccc([C@H]2CN(C)C(=O)[C@@H]2C(=O)Nc2ccccc2F)c1 , I see its pest or weed control at 125 g/ha listed as 80

* * *

Known pest or weed control at 250 g/ha of a selection of molecules
system: velvetleaf (Abutilon theophrasti); test: Test G Post-Emergence Protocol; type: in vivo; conditions: Abutilon theophrasti, post-emergence, 312 h, 250 g ai/ha, evaluated after 13 days, 100=total damage to plant, 0=no damage to plant, read-out: Velvetleaf damage rating

Reference set, count: 2
CN1C[C@H](c2ccc(C(F)(F)F)cc2)[C@@H](C(=O)Nc2ccc[n+]([O-])c2F)C1=O (racemic)
0%
Cc1cc(C2CN(C)C(=O)C2C(=O)Nc2cccc(F)c2F)cc(C)c1F (stereo not drawn)
40%

Now look at this entry.
The molecule listed as CCOc1ccc(C2CN(C)C(=O)C2C(=O)Nc2cccc(F)c2F)cc1F (stereo not drawn) shows pest or weed control at 250 g/ha equal to 0%

* * *

tested on: johnsongrass (Sorghum halepense); experiment: Test C preemergence; assay type: in vivo; details: 125 g ai/ha, scale 0 to 100, 0 no effect, 100 complete control
Each entry below lists one item and its recorded Plant response rating, Johnsongrass value.
A bare number is all that is needed in reply.

Cc1cccc(C2CN(C)C(=O)C2C(=O)Nc2cccc(F)c2F)c1 (centres unmarked) [Compound 667]
85
Cc1ccc(C2CN(C)C(=O)C2C(=O)Nc2cccc(F)c2F)cc1 (centres unmarked) [Compound 662]
90
CN1CC(c2ccc(F)c(C(F)(F)F)c2)C(C(=O)Nc2cccc(F)c2F)C1=O (centres unmarked) [Compound 613]
90
O=C1NCC(c2cccc(OC(F)(F)C(F)F)c2)C1C(=O)Nc1ccccc1F (racemic) [Compound 695]
80
CN1C[C@H](c2ccc(F)c(F)c2)[C@@H](C(=O)Nc2cccc(F)c2F)C1=O [Compound 639]
80
CN1CC(c2cccc(OC(F)F)c2)C(C(=O)Nc2ccccc2F)C1=O (centres unmarked) [Compound 618]
85
CN1CC(c2cccc(C(F)(F)F)c2)C(C(=O)Nc2cccc(F)c2F)C1=O (centres unmarked) [Compound 636]
85

Could you now consider this next molecule?
Looking up CN1CC(c2cccc(OC(F)(F)C(F)F)c2)C(C(=O)Nc2ccc(F)cc2F)C1=O (centres unmarked) [Compound 393] , I found its Plant response rating, Johnsongrass recorded as 85

* * *

Listed here: items and their measured pest or weed control at 62.5 g/ha.
system: ivy-leaved morning glory (Ipomoea hederacea); experiment: Test G Post-Emergence Protocol; assay type: in vivo; conditions: Ipomoea, post-emergence, 312 h, 62.5 g ai/ha, evaluated after 13 days, 100=total damage to plant, 0=no damage to plant, read-out: Morningglory, Ivy-leaved damage rating
Response body: numeric value in %, unit text excluded.

Recorded pest or weed control at 62.5 g/ha, per entry:
Cc1cc([C@H]2CN(C)C(=O)[C@@H]2C(=O)Nc2cccc(F)c2F)cnn1 (racemic)
0
CCOc1cc(C2CN(C)C(=O)C2C(=O)Nc2cccc(F)c2F)ccc1OC (centres unmarked)
10
COc1cc(C2CN(C)C(=O)C2C(=O)Nc2cccc(F)c2F)cc(C)c1C (centres unmarked)
60
Cc1cc(C)cc([C@H]2CN(C)C(=O)[C@@H]2C(=O)Nc2ccccc2S(C)(=O)=O)c1 (racemic)
30
COc1cc(C2CN(C)C(=O)C2C(=O)Nc2cccc(F)c2F)cc(F)c1F (centres unmarked)
0

Entry Cc1c(F)cccc1NC(=O)[C@@H]1C(=O)N(C)C[C@H]1c1cccc(OCC2CC2)c1 (racemic) , pest or weed control at 62.5 g/ha reported as 20

The measured pest or weed control at 62.5 g/ha associated with Cc1cc(C2CN(C)C(=O)C2C(=O)Nc2cccc(F)c2F)cc(C)c1F (centres unmarked) reads 30

Lab note: CN1C[C@H](c2cccc(C(F)(F)F)c2)[C@@H](C(=O)Nc2cnccc2[S+](C)[O-])C1=O (mixture of isomers) gave pest or weed control at 62.5 g/ha of 0
